- Test System: OsSMF1 (Oryza sativa, UniProt Q6ZLB0 1-436)
- Sequence: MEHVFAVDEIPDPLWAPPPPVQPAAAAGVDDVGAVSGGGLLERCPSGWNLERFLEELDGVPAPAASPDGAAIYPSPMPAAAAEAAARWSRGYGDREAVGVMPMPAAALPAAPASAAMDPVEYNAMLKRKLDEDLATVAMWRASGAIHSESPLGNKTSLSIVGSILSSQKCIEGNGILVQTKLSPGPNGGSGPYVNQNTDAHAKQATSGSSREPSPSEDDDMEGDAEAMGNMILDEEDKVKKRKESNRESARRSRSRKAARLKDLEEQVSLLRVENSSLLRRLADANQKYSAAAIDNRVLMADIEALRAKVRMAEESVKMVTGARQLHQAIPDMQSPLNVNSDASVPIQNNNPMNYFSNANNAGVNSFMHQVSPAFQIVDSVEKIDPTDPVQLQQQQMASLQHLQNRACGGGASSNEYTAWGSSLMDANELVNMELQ
- Assay Notes: protein-binding microarray (RPBM); PBS, 2% BSA, 51.3 ng/ul salmon testes DNA, 50 uM zinc acetate, 200 nM TF, 25 C, 1 h; high values mean tight binding
- Test Parameters: protein: recombinant; tags: N-terminal polyhistidine and DsRed monomer fusion (pET32a); chain copies: 2; label: CyDye5-dUTP incorporated in the synthesized complementary strand; 3' TTTTT single-stranded linker to array surface; dsDNA, one strand shown
In all, about 39,000 sequences were measured (“fluorescence intensity (a.u.)”: median about 4,300, highest 2% from about 39,000 on). The full list was thinned out, with the highest values kept by preference.
# binding signal per entry
Value Kind: binding signal

| Query Sequence | Value Kind | Recorded Measurement |
| --- | --- | --- |
| CATAACAACCACTAAAACATTATGAATATTTTGTACATACCGGAGTCACCTAGTGCAG | binding signal | 22800 fluorescence intensity (a.u.) |
| TGAATATAAACACAACTACATTTAGCGACAGAAGAAGAACCGGAGTCACCTAGTGCAG | binding signal | 40600 fluorescence intensity (a.u.) |
| CATATGCCATCTAATCATCCTTGTCTGATGTCATTTATTCCGGAGTCACCTAGTGCAG | binding signal | 5870 fluorescence intensity (a.u.) |
| ACTATATATATACACTACGGTTGACAAAGACATCCCAACACGGAGTCACCTAGTGCAG | binding signal | 3240 fluorescence intensity (a.u.) |
| AGAAGAGAATGGAGTGGAGCTGACATGTGGGCTCCACCATCGGAGTCACCTAGTGCAG | binding signal | 3950 fluorescence intensity (a.u.) |
| CGGAGTGGCCAGCGTGGTGACAAGCGCGACGTGGCGGCTTCGGAGTCACCTAGTGCAG | binding signal | 6830 fluorescence intensity (a.u.) |
| TTATGAGTTTAGAGGGATGATTAGGATACATGGGAATTTTCGGAGTCACCTAGTGCAG | binding signal | 22200 fluorescence intensity (a.u.) |
| CGCACGATGATCATGTGTTGGTGTTGGCATGCAATGCAACCGGAGTCACCTAGTGCAG | binding signal | 3780 fluorescence intensity (a.u.) |
| AATACCGACGTGTCTAGACCTCAGCGACACACTGGAGCGTCGGAGTCACCTAGTGCAG | binding signal | 5000 fluorescence intensity (a.u.) |
| ATTCACTGATAATAGAGACCCACACGTTAGTATTGGAGTACGGAGTCACCTAGTGCAG | binding signal | 3140 fluorescence intensity (a.u.) |
| CGGATTCTCGTCGGCTTCGGCGACCGGAAGAGGAGAGGAGCGGAGTCACCTAGTGCAG | binding signal | 3230 fluorescence intensity (a.u.) |
| AGCCTTGTCATGTAAACCTATCCTTTTGAGACACGTGCGTCGGAGTCACCTAGTGCAG | binding signal | 5780 fluorescence intensity (a.u.) |
| AGCACACATACTAGTACTATATGACAAGTCCACGGAGAGCCGGAGTCACCTAGTGCAG | binding signal | 3760 fluorescence intensity (a.u.) |
| AGAATTTTGCAGACCGAGGCTTGGCCACCGAGGCGCAAGCCGGAGTCACCTAGTGCAG | binding signal | 3790 fluorescence intensity (a.u.) |
| TAGATCAATGATGTTGCATGCAACTCACGCGACACATGGTCGGAGTCACCTAGTGCAG | binding signal | 40000 fluorescence intensity (a.u.) |
| AGTAAATCCACATCAACAGCATTCTGTTGTTAACTCTGCCCGGAGTCACCTAGTGCAG | binding signal | 6820 fluorescence intensity (a.u.) |
| CAAAGGAACACATCTGGGTCATCAGACAACTCAATAGAGTCGGAGTCACCTAGTGCAG | binding signal | 43000 fluorescence intensity (a.u.) |
| TCACCTCCACCACCGTTGACGATGACACGCGGTGCGTCGCCGGAGTCACCTAGTGCAG | binding signal | 4250 fluorescence intensity (a.u.) |
| TTCACAACACTTGCATGAACTCAGGTGTCAATGGTAAGGTCGGAGTCACCTAGTGCAG | binding signal | 3560 fluorescence intensity (a.u.) |
